Just for reference, patent US9708251B2 is where these values come from.

assay: Emulsion stability testing of nonionic emulsifiers, Hallcomid solvent series; assay type: physicochemical; conditions: 2,4-D diester 480 g/L in Hallcomid M-8-10, 34 ppm water
The compounds listed here are annotated with their 1 h separation, amount.
# output: number + unit

> print(dat)
                                   compound  result
1         C=CCCCCCCCCOCCOCCOCCOCCOCCOCCOCCO  4.5 mL
2                     C=CCCCCCCCCOCCOCCOCCO  5.6 mL
3  CCC=CCCCCCCCCOCCOCCOCCO (mixture of isomers)    6 mL
4  CCC=CCCCCCCCCOCCOCCOCCOCCOCCOCCOCCOCCOCCOCCOCCOCCOCCOCCOCCO (mixture of isomers)  4.5 mL
5  CCC=CCCCCCCCCOCCOCCOCCOCCOCCOCCOCCO (mixture of isomers)  4.4 mL

Fill in: 1 h separation, amount of CCC=CCCCCCCCCOCCO (mixture of isomers) is ___ 6.2 mL

Entry C=CCCCCCCCCOCCOCCOCCOCCOCCO please 5 mL

Entry CCC=CCCCCCCCCOCCOCCOCCOCCOCCO (mixture of isomers) please 5.3 mL

Entry C=CCCCCCCCCOCCO please 6 mL

Entry C=CCCCCCCCCOCCOCCOCCOCCOCCOCCOCCOCCOCCOCCOCCOCCOCCOCCOCCO please 4.4 mL
